Test system: K562
Assay: NCI tumour cell line growth inhibition, 48 h
Active and inactive are the calls of the source. Cut-off read from the data, not from the text of the source: active = GI50 up to about 1.1 µM and inactive = higher.
Answer with one of the outcomes given here: 1 = active, -1 = inactive

Before answering, review these 6 worked examples.
>>> answer_label("O=C(CCN(C(=O)O)S(=O)(=O)c1ccc(NC(=O)c2ccccc2)cc1)Nc1ccccc1")
-1
>>> answer_label("COc1cc(O)c2c(=O)c(OC)c(-c3ccc(OC)c(O)c3)oc2c1")
-1
>>> answer_label("Cc1ccc(S(=O)(=O)NCCCN(CCCNS(=O)(=O)c2ccc(C)cc2)S(=O)(=O)c2ccc(C)cc2)cc1")
-1
>>> answer_label("CCOC(=O)c1cnc2c(ccc3ncccc32)c1NCCCN(CC)CC")
-1
>>> answer_label("N#CC12CC(C=O)=C(N)C1(C#N)CC(C=O)=C2N (configuration not stated)")
-1
>>> answer_label("O=c1[nH]c(=O)n(COCc2ccccc2)cc1Nc1ccc(Br)cc1")
-1

Ask | What call does the record list for "COC(CN(C)C(=S)Nc1cccc2ccccc12)OC" ?
Reply | -1

Ask | Request: [N-]=[N+]=CC(=O)C1CCCN1C(=O)c1ccccc1 (configuration not stated)
Reply | -1

Ask | Now try CC(C)(C)C1CCC2c3c([nH]c4ccccc34)C3C(=O)N(c4ccccc4Cl)C(=O)C3C2C1 (configuration not stated) .
Reply | -1

Ask | Cool, now "O=C1c2ccccc2C(=O)N1CCn1ccc(NC(c2ccccc2)(c2ccccc2)c2ccccc2)nc1=O"
Reply | -1

Ask | Also NC1CC2C3CCC2C1C3=O (configuration not stated) , if possible.
Reply | -1

Ask | What would you report for O=C1O[C@H]2[C@@H]3OC(=O)c4cc(O)c(O)c(O)c4-c4c(cc(O)c(O)c4O)C(=O)OC[C@H]2O[C@@H](OC(=O)c2cc(O)c(O)c(O)c2)[C@@H]3OC(=O)c2cc(O)c(O)c3c2[C@@H]2C1=CC(=O)C(O)(O)C2(O)O3 (some centres not stated) ?
Reply | -1

Ask | Would you kindly repeat that for "CN(CCc1ccc(Br)cc1)CCN1CCCCC1" ?
Reply | -1

Ask | Could you do the same for "CCn1c2ccccc2n2c(=O)c3c(c(C#N)c12)CCCC3" , please?
Reply | -1

---

Property: GI50; scope: individual compounds
Test system: RPMI-8226
Assay: NCI tumour cell line growth inhibition, 48 h
Activity calls are given as the source filed them. Rule as the data show it: active = GI50 up to about 1.1 µM and inactive = higher.

As a guide, the following entries are already answered.
>>> result("C(=C\\c1nccs1)/c1cccc(/C=C/c2nccs2)n1")
"> 50 µM (inactive)"
>>> result("N#CC1(Cc2ccc(N)cc2)c2ccccc2C=CN1C(=O)c1ccccc1 (stereo unspecified)")
"35.2 µM (inactive)"
>>> result("COc1ccc(NC(=O)C/C(C)=N\\N=C(N)N)c([N+](=O)[O-])c1")
"> 100 µM (inactive)"

Ask | Quick one: GI50 for "CC1=CC[C@H](C[C@H](C#CCCCC2OCCO2)O[Si](C(C)C)(C(C)C)C(C)C)C(=O)CC1" ?
Reply | > 100 µM (inactive)

Ask | Can you handle CC12CCC(C(=O)OC1=O)C2(C)C (stereo unspecified) next?
Reply | > 100 µM (inactive)

Ask | // query: "Cc1ccc2c(c1)SC1=Nc3sc4cc(C)ccc4[n+]3CN12"
Reply | 1.81 µM (inactive)
